Attribute: log10 of koff
testedTarget: T1, cynomolgus soluble urokinase plasminogen activator receptor (suPAR) (cynomolgus, UniProt Q9GK78 23-303, limits assumed)
T1 construct: Target antigen of the scFv off-rate screen; also called cynomolgus suPAR; cynomolgus uPAR
T1 sequence (Q9GK78 23-303 limits assumed): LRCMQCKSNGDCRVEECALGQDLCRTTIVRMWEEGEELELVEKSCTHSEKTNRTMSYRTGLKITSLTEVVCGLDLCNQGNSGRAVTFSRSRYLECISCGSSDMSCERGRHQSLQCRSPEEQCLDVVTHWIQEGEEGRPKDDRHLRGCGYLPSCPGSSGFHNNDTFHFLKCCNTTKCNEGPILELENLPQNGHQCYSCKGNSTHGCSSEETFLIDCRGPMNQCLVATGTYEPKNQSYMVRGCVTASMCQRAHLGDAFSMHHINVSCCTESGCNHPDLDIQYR
protocolSummary: BLI (Octet) off-rate screen of scFv clones
Scale: decimal log of koff, koff in s⁻¹.

These recorded examples may help you get a feel for the data.
binder="suPAR_DB06_C09 (scFv, V domains shown) VH: QVQLVQSGAEVKKPGASVKVSCKASGYTFTSYYMHWVRQAPGQGLEWMGWIDPENGNTIYDQKFQGRVTMTRDTSTSTVYMELSSLRSEDTAVYYCARGYDVDWFVYWGQGTLVTVSS VL: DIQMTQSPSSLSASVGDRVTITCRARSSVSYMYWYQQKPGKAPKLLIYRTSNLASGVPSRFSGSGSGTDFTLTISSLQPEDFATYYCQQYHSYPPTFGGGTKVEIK" numericresult=-3.25
binder="suPAR_DB06_G01 (scFv, V domains shown) VH: QVQLVQSGAEVKKPGASVKVSCKASGDTFTGYYMHWVRQAPGQGLEWMGWIDHENGSTIYAQKFQGRVTMTRDTSTSTVYMELSSLRSEDTAVYYCARGYDVDWFVYWGQGTLVTVSS VL: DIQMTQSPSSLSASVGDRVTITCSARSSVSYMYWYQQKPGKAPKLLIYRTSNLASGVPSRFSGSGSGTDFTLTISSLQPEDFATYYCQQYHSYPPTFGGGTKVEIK" numericresult=-3.87
binder="suPAR_DB06_F05 (scFv, V domains shown) VH: QVQLVQSGAEVKKPGASVKVSCKASGDSFTGYYIHWVRQAPGQGLEWMGWIDHENGNTIYDQKFQGRVTMTRDTSTSTVYMELSSLRSEDTAVYYCARGYDVDWFVYWGQGTLVTVSS VL: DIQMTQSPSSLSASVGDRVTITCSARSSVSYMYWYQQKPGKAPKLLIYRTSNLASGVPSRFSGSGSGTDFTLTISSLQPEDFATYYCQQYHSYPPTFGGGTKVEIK" numericresult=-6.51
binder="suPAR_DB06_F09 (scFv, V domains shown) VH: QVQLVQSGAEVKKPGASVKVSCKASGYTFTTYYMHWVRQAPGQGLEWMGWIDPEGGNTIYDQKFQGRVTMTRDTSTSTVYMELSSLRSEDTAVYYCARGYDVDWFVYWGQGTLVTVSS VL: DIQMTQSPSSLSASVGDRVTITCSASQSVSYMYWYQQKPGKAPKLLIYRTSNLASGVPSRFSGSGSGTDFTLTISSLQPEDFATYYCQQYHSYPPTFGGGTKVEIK" numericresult=-3.45

The record that follows has no log10 of koff shown yet.
Q: # input binder: suPAR_DB06_F01 (scFv, V domains shown) VH: QVQLVQSGAEVKKPGASVKVSCKASGGTFTSYYVHWVRQAPGQGLEWMGWIDPEGGNTSYDQKFQGRVTMTRDTSTSTVYMELSSLRSEDTAVYYCARGYDVDWFVYWGQGTLVTVSS VL: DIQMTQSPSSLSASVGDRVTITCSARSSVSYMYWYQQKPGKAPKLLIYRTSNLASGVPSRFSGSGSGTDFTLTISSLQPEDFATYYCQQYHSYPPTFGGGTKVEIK ; wanted: its log10 of koff
Result: -3.71
